- testParameters: pH 6.8
reportedProperty: aqueous solubility (µg/mL)

Cc1cc(Nc2cc(N3CCN(C)CC3)nc(/C=C/c3ccccc3)n2)n[nH]1; 0.2
COc1ccc(CNC(=O)c2cc(-c3cncc(C)c3)ncc2-c2nccs2)nc1OC; 9.86
CN(CCN1CCOC1=O)C(=O)c1cc2cc(Br)ccc2o1; 50.9
COC(=O)c1ccc2c(c1)CCN2S(=O)(=O)c1ccc(Cl)c(C(F)(F)F)c1; 0.9
Cc1cc(NC(=O)C2CCOCC2)sn1; 56.5
O=C(Nc1nc2cccc(-c3ccc(CN4CCS(=O)(=O)CC4)cc3)n2n1)C1CC1; 47.1
COC(=O)Nc1ccc(Oc2nc3ccccc3o2)cc1; 22.2
CCn1nccc1-c1n[nH]c(=O)n1Cc1ccccc1; 27
Cc1cccc(-n2cnnc2CCCN2CCOCC2)c1; 35
O[C@@H]1CCCC[C@H]1N1CCC(c2ccccc2)CC1; 46.5

1. Cc1ccc(NC(=O)c2cccc3cccnc23)cc1
2. CC(C)NS(=O)(=O)c1ccc2c(c1)oc(=O)c1cc(S(=O)(=O)NC(C)C)ccc12
Q: Endpoint returns whichever of 1 and 2 has the numerically higher aqueous solubility. Answer format: the label of the selected item.
Ans: 1
(1: 5.7 µg/mL, 2: 0.47 µg/mL)

a. Cc1ccc(N/N=C2\C(=O)N(C)N=C2Nc2ccccc2Cl)cc1
b. CN(C)c1nc(N)nc(Sc2ccccc2)n1
Q: Endpoint returns whichever of a and b has the numerically higher aqueous solubility. Answer format: the label of the selected item.
Ans: b

A. Cc1ccc(NC(=O)c2cccc(N(C)C)c2)cc1NC(=O)c1ccc(O)cc1
B. Cc1ccccc1C(=O)N1CCC[C@@H]1Cn1nnn(-c2cccs2)c1=O
Q: Endpoint returns whichever of A and B has the numerically higher aqueous solubility. Answer format: the label of the selected item.
Ans: B

A. Cc1oc(C)c(C(=O)Nc2ccn(C)n2)c1C
B. Cc1ccc2oc([C@H]3CCN(Cc4ccc(C#N)cc4)C3)nc2c1
Q: // select label with min value of measured aqueous solubility from [ A , B ] Answer format: the label of the selected item.
Ans: B
(B: 5.4 µg/mL, A: 36.7 µg/mL)

---

reportedProperty: intrinsic clearance, rat liver microsomes (mL/min/kg)

Check out these entries, answers already filled in.
CCN(CC(N)=O)CC(=O)N1c2ccccc2CCc2ccccc21; 674
COc1ccc(-n2c(Cn3cnc(C#N)n3)nc3ccccc32)cc1; 664
Cc1cc(C)c(-n2cccn2)c(-c2cn(C[C@@H]3CCCO3)nn2)c1; 507

a. CC(Oc1ccc(Cl)cc1)C(=O)N1CCC(n2c(=O)[nH]c3ccccc32)CC1 (stereo unspecified)
b. c1cc(CN2CCC(c3ccn[nH]3)CC2)ccn1
c. CC(C)(C)n1ncc(OCc2ccc(OCCOCCO)nc2)c(Cl)c1=O
Q: Sort the 3 compounds by intrinsic clearance, rat liver microsomes; largest first, smallest last. Write the labels in rank order as requested.
Ans: a, c, b

---

reportedProperty: MDR1-MDCK efflux ratio

1. CNC(=O)c1cccc(Oc2ncnc3c2CN(C)CC3)c1
2. CN1CCN(C(=O)C2(NC(=O)c3ccc(C(F)(F)F)cc3)CCCC2)CC1
3. CC(C)CC(=O)Nc1cccnc1N(C)C
4. Cc1ncsc1C(=O)N1CCCCC1c1nc(N)ncc1-c1cccc(C(F)(F)F)c1 (stereo unspecified)
Q: Order the records, beginning with the lowest MDR1-MDCK efflux ratio and ending with the highest. Write the labels in rank order as requested.
Ans: 3, 4, 1, 2
(3: 0.597, 4: 9.17, 1: 19.2, 2: 86)
